Measured parameter: melting point

// below: answered compounds
CC1CC(=O)NN=C1c1ccc(NN=Cc2cc([N+](=O)[O-])ccc2O)cc1 (centres unmarked) :: 299 to 300 °C
CC(=NNc1ccc(C2=NNC(=O)CC2C)cc1)c1cc(O)ccc1O (centres unmarked) :: 279 to 284 °C
CCCc1c(O)ccc(C=NNc2ccc(C3=NNC(=O)CC3C)cc2)c1O (centres unmarked) :: 160 to 170 °C
COc1ccccc1C=NNc1ccc(C2=NNC(=O)CC2C)cc1 (centres unmarked) :: 180 to 183 °C
O=c1[nH]nc(-c2ccc(NN=C(c3ccc(O)cc3)c3ccc(O)cc3O)cc2)c2ccccc12 :: 150 to 160 °C

Report melting point for every entry below.
1. CC1CC(=O)NN=C1c1ccc(NN=Cc2ccc(O)c(O)c2[N+](=O)[O-])cc1 (centres unmarked)
2. COc1c(OC(C)=O)ccc(C(=NN)c2ccc(C3=NNC(=O)CC3C)cc2)c1[N+](=O)[O-] (centres unmarked)
3. CC(=O)c1c(O)ccc(C=NNc2ccc(C3=NNC(=O)CC3C)cc2)c1O (centres unmarked)

["239 to 241 °C", "220 to 223 °C", "268 to 270 °C"]
